Below, each entry is listed with its recorded CC50.
Test: in vitro
Conditions: human
OUTCOME MEASURE: CC50

{"COMPOUND": "CC(C)OC(=O)[C@H](C)NP(=O)(OC[C@@]1(N=[N+]=[N-])O[C@@H](n2ccc(N)nc2=O)[C@H](O)[C@@H]1F)Oc1ccccc1 (stereo partly drawn) [Compound I-7]", "OUTCOME MEASURE": "CC50", "OBSERVED MEASUREMENT": "> 100 µM"}
{"COMPOUND": "CCOC(=O)[C@H](C)NP(=O)(OC[C@@]1(N=[N+]=[N-])O[C@@H](n2ccc(=O)[nH]c2=O)[C@H](O)[C@@H]1F)Oc1cccc2ccccc12 (stereo partly drawn) [Compound I-3]", "OUTCOME MEASURE": "CC50", "OBSERVED MEASUREMENT": "> 100 µM"}
{"COMPOUND": "CC(C)OC(=O)[C@H](C)NP(=O)(OC[C@@]1(N=[N+]=[N-])O[C@@H](n2ccc(=O)[nH]c2=O)[C@H](O)[C@@H]1F)Oc1ccccc1 (stereo partly drawn) [Compound I-1]", "OUTCOME MEASURE": "CC50", "OBSERVED MEASUREMENT": "> 100 µM"}
{"COMPOUND": "CCOC(=O)[C@H](C)NP(=O)(OC[C@@]1(N=[N+]=[N-])O[C@@H](n2ccc(=O)[nH]c2=O)[C@H](O)[C@@H]1F)Oc1ccccc1 (stereo partly drawn) [Compound I-2]", "OUTCOME MEASURE": "CC50", "OBSERVED MEASUREMENT": "> 100 µM"}
{"COMPOUND": "CCC(=O)O[C@H]1[C@H](n2ccc(N)nc2=O)O[C@@](COP(=O)(N[C@@H](C)C(=O)OC(C)C)Oc2cccc3ccccc23)(N=[N+]=[N-])[C@H]1F (stereo partly drawn) [Compound I-9]", "OUTCOME MEASURE": "CC50", "OBSERVED MEASUREMENT": "58 µM"}
{"COMPOUND": "CC(C)OC(=O)[C@H](C)NP(=O)(O)OC[C@@]1(N=[N+]=[N-])O[C@@H](n2ccc(N)nc2=O)[C@H](O)[C@@H]1F [Compound I-8]", "OUTCOME MEASURE": "CC50", "OBSERVED MEASUREMENT": "> 100 µM"}
